src = the supplement of paper PMC10290057

Test system: HCT116;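 also: Luminescence-based viability readout, five doses per compound, normalized against on-plate DMSO and empty-well controls, followed by dose-response curve fitting for every drug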
Assay: efficacy (fitted maximal change in viability relative to DMSO control); higher = less cytotoxic (negative = loss of viability)
Conditions: 48 h
Rule: efficacy of -70% or more gives 1.0; anything lower gives 0.0.

Field: example entries. Status: answers known.
Given CC1(C)CCC(=C(\C1)C2=CC=C(Cl)C=C2)/CN3CCN(CC3)C4=CC(=C(C=C4)C(=O)N[S+]([O-])(=O)C5=CC=C(NCC6CCOCC6)C(=C5)[N+]([O-])=O)OC7=CN=C8[NH]C=CC8=C7 [Venetoclax (ABT-199)] , state whether its efficacy is at least -70%.
0.0

Given Cc1noc2c1-c1ccccc1C(c1ccc(Cl)cc1)=N[C@H]2CC(N)=O [CPI-0610] , state whether its efficacy is at least -70%.
1.0

Given CC1(N2CCC(n3c([C@@H]4CCCNC4)nc4ccccc43)CC2)CCCCCCC1 [MCOPPB] , state whether its efficacy is at least -70%.
0.0

Given C[C@H]1C[C@@H]2[C@H](CC[C@@]3(C)[C@H]2CC[C@]3(OC(C)=O)C(C)=O)[C@@]\4(C)CCC(=O)\C=C14 [Medroxyprogesterone acetate] , state whether its efficacy is at least -70%.
1.0

Given O=C(Nc1cccc(C(F)(F)F)c1)Nc1cc([S+](=O)([O-])NC2CC2)ccc1-c1ccsc1 [AGI-6780] , state whether its efficacy is at least -70%.
0.0

More entries:
Given CN1CCN(CCCNc2ncc(Cl)c(-c3cc4c(C(=O)NC5CC5)cccc4s3)n2)CC1 , state whether its efficacy is at least -70%.
1.0

Given COc1cc2ncnc(Nc3ccc(O)c(Br)c3)c2cc1OC [WHI-P154] , state whether its efficacy is at least -70%.
0.0
